target: hERG channel (Homo sapiens, UniProt Q12809); test: Patch clamp for the hERG channel
Sequence (Q12809 whole entry): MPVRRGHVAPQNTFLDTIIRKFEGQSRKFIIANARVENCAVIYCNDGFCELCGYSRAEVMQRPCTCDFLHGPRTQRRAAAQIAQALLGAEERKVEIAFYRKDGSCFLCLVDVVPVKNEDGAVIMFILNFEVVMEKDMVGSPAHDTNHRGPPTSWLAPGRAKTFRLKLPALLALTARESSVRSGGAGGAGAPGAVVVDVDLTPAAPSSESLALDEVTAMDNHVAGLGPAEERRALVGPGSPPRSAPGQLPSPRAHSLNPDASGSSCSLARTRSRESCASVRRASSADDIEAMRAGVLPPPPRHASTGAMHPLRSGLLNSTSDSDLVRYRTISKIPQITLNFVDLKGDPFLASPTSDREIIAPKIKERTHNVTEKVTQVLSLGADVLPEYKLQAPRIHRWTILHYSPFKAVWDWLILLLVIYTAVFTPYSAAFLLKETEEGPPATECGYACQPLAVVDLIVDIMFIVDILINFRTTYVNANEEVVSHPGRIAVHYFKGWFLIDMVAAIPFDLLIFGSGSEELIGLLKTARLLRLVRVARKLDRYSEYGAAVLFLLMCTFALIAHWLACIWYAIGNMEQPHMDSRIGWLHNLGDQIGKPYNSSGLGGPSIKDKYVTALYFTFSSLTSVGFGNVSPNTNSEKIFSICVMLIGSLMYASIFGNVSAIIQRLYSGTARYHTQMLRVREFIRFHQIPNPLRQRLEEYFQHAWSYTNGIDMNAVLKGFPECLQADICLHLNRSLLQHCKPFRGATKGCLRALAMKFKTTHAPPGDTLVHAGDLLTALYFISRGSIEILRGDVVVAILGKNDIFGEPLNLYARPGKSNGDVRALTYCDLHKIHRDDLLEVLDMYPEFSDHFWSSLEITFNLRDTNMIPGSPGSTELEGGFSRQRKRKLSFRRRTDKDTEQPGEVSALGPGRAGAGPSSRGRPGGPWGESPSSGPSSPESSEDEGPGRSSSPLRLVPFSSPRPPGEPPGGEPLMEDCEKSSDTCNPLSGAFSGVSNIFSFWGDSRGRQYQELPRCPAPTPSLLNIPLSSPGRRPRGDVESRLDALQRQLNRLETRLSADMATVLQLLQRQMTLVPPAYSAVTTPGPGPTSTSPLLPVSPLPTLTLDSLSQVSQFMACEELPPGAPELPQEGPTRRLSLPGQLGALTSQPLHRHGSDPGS
property-measured: IC50

Form field: reported IC50 of `NCCCNCCCCNCCCNc1cc2nc(-c3ccccc3Cl)[nH]c(=O)c2cc1F` > 50 µM

---

experiment: in vivo; settings: Sprague-Dawley (S.D.), rat, iv, 10 mg/kg, Kp (ratio of tissue to plasma concentration), heart, 10 mg/kg i.v.
property-measured: Kp at 4 h
Answers are plain numbers.

# input compound: `NCCCNCCCCNCCCNc1cc2nc(-c3ccccc3Cl)[nH]c(=O)c2cc1F` ; wanted: its Kp at 4 h 16.9

---

assay: Cytotoxicity, NIH3T3; assay type: cell-based; conditions: mouse, NIH3T3 cells
property-measured: pEC50
Numbers only, as −log10 of the molar value.

Which pEC50 is listed for NCCCNCCCCNCCCNc1cc2nc(-c3ccccc3Cl)[nH]c(=O)c2cc1F [KR-39038] ? 4.21

---

assay: Pharmacokinetic study in rats; type: in vivo; conditions: Sprague-Dawley (S.D.), rat, plasma, iv, 5 mg/kg
property-measured: half-life

What value of half-life has been recorded for this entry: `NCCCNCCCCNCCCNc1cc2nc(-c3ccccc3Cl)[nH]c(=O)c2cc1F` 42 min

---

assay: Pharmacokinetic study in rats; assay type: in vivo; conditions: Sprague-Dawley (S.D.), rat, plasma, iv, 5 mg/kg
property-measured: Vd (L/kg)
Answers are plain numbers, in L/kg.

Dear colleague, I am looking for the recorded Vd of the following compound: `NCCCNCCCCNCCCNc1cc2nc(-c3ccccc3Cl)[nH]c(=O)c2cc1F` 1.2

---

experiment: in vivo; settings: Sprague-Dawley (S.D.), rat, iv, 10 mg/kg, Kp (ratio of tissue to plasma concentration), plasma, 10 mg/kg i.v.
property-measured: Kp at 4 h
One number for each entry.

Which value of Kp at 4 h has been reported for `NCCCNCCCCNCCCNc1cc2nc(-c3ccccc3Cl)[nH]c(=O)c2cc1F` in the records? 1

---

experiment: in vivo; settings: Sprague-Dawley (S.D.), rat, iv, 10 mg/kg, Kp (ratio of tissue to plasma concentration), lung, 10 mg/kg i.v.
property-measured: Kp at 4 h
Give bare numbers.

What value of Kp at 4 h has been recorded for this entry: `NCCCNCCCCNCCCNc1cc2nc(-c3ccccc3Cl)[nH]c(=O)c2cc1F` 2.7

---

assay: Pharmacokinetic study in rats; assay type: in vivo; settings: Sprague-Dawley (S.D.), rat, plasma, iv, 10 mg/kg
property-measured: AUC(0-inf) (ng·h/mL)
One number for each entry, in ng·h/mL.

# query: AUC(0-inf) of entry `NCCCNCCCCNCCCNc1cc2nc(-c3ccccc3Cl)[nH]c(=O)c2cc1F` 3400
